Reference source for all entries: patent US20240034757A1

Target: T1, CXCL1_HUMAN (human, UniProt P09341 35-107)
T1 sequence: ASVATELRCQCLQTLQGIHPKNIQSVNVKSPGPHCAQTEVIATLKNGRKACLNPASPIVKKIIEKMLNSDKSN
Experiment: yeast surface display FACS re-test; also: test concentration or dose not given here
% cells over threshold fluorescence by entry:
Give a bare numeral; the unit % is implied.

// known answers, use as guide
QUERY: Entry P1229_IXORI (other) DDEFFTVDYCGMNCTLQQDGSWTPCTQKNAECKCYHESGSSVGLCLSTAYTDFNQFGDPNNSDLDAATPRHPDASSR has what % cells over threshold fluorescence?
RESULT: 66

QUERY: Now consider P1077_IXORI (other) GSKQLIGPQSSTNSIKAEFCDTNCTAGTNGIWNGCSGDCFCTHVGNSTEGRCMKITGFDEYPTSEAEE .
RESULT: 50

---
QUERY: Bench note: what % cells over threshold fluorescence did P1166_IXORI (other) GPETKEDKKSDVYELFTVEYCGTNCTLLTNGRWTACTGKKGTCRCYHESGEKVGLCLSTEYTDFSEYPNPKSSEIDAAAPLPRETH show?
RESULT: 63
